Assay: refractive index (Na D-line) (dimensionless)
Conditions: 288.15 K; 101.33 kPa; Liquid; Standard Abbe refractometry
Numbers after ± are expanded uncertainties.
Measured refractive index values are reported for all entries that follow.

CCCC[N+](C)(CCCC)CCCC.O=S(=O)([N-]S(=O)(=O)C(F)(F)F)C(F)(F)F [tributylmethylammonium bis((trifluoromethyl)sulfonyl)imide]: 1.42933 ± 0.00037
CC[S+](C)CC.O=S(=O)([N-]S(=O)(=O)C(F)(F)F)C(F)(F)F [diethylmethylsulfonium bis[(trifluoromethyl)sulfonyl]imide]: 1.42597 ± 0.00037
CCCC[N+](C)(C)C.O=S(=O)([N-]S(=O)(=O)C(F)(F)F)C(F)(F)F [butyltrimethylammonium bis(trifluoromethylsulfonyl)imide]: 1.41083 ± 0.00037

# ---- query molecule ----
Q: Item CC[S+](CC)CC.O=S(=O)([N-]S(=O)(=O)C(F)(F)F)C(F)(F)F [triethylsulfonium bis((trifluoromethyl)sulfonyl)imide] has what recorded refractive index?
Ans: 1.42906 ± 0.00037

###

Measured viscosity values are reported for all entries that follow.
Conditions: 293.15 K; 101.33 kPa; Liquid; Cone and plate viscometry
// note: answer is a bare numeric in mPa·s

Q: Item CCCC[N+](C)(CCCC)CCCC.O=S(=O)([N-]S(=O)(=O)C(F)(F)F)C(F)(F)F [tributylmethylammonium bis((trifluoromethyl)sulfonyl)imide] has what recorded viscosity?
Ans: 819.2

Q: Item CC[S+](C)CC.O=S(=O)([N-]S(=O)(=O)C(F)(F)F)C(F)(F)F [diethylmethylsulfonium bis[(trifluoromethyl)sulfonyl]imide] has what recorded viscosity?
Ans: 49.9

Q: Item CC[S+](CC)CC.O=S(=O)([N-]S(=O)(=O)C(F)(F)F)C(F)(F)F [triethylsulfonium bis((trifluoromethyl)sulfonyl)imide] has what recorded viscosity?
Ans: 41.1

Q: Item CCCC[N+](C)(C)C.O=S(=O)([N-]S(=O)(=O)C(F)(F)F)C(F)(F)F [butyltrimethylammonium bis(trifluoromethylsulfonyl)imide] has what recorded viscosity?
Ans: 137.7

###

Measured refractive index values are reported for all entries that follow.
Experiment: refractive index (Na D-line) (dimensionless)
Settings: 318.15 K; 101.33 kPa; Liquid; Standard Abbe refractometry
Response field accepts a number only; no unit should be typed.

Q: Item CCCC[N+](C)(C)C.O=S(=O)([N-]S(=O)(=O)C(F)(F)F)C(F)(F)F [butyltrimethylammonium bis(trifluoromethylsulfonyl)imide] has what recorded refractive index?
Ans: 1.40273

Q: Item CCCC[N+](C)(CCCC)CCCC.O=S(=O)([N-]S(=O)(=O)C(F)(F)F)C(F)(F)F [tributylmethylammonium bis((trifluoromethyl)sulfonyl)imide] has what recorded refractive index?
Ans: 1.42047

Q: Item CC[S+](C)CC.O=S(=O)([N-]S(=O)(=O)C(F)(F)F)C(F)(F)F [diethylmethylsulfonium bis[(trifluoromethyl)sulfonyl]imide] has what recorded refractive index?
Ans: 1.41744

Q: Item CC[S+](CC)CC.O=S(=O)([N-]S(=O)(=O)C(F)(F)F)C(F)(F)F [triethylsulfonium bis((trifluoromethyl)sulfonyl)imide] has what recorded refractive index?
Ans: 1.42044

###

Measured refractive index values are reported for all entries that follow.
Test: refractive index (Na D-line) (dimensionless)
Conditions: 338.15 K; 101.33 kPa; Liquid; Standard Abbe refractometry
Response field accepts a number only; no unit should be typed.

Some solved cases for reference:
CC[S+](CC)CC.O=S(=O)([N-]S(=O)(=O)C(F)(F)F)C(F)(F)F [triethylsulfonium bis((trifluoromethyl)sulfonyl)imide]: 1.4149
CCCC[N+](C)(C)C.O=S(=O)([N-]S(=O)(=O)C(F)(F)F)C(F)(F)F [butyltrimethylammonium bis(trifluoromethylsulfonyl)imide]: 1.39747
CC[S+](C)CC.O=S(=O)([N-]S(=O)(=O)C(F)(F)F)C(F)(F)F [diethylmethylsulfonium bis[(trifluoromethyl)sulfonyl]imide]: 1.41195

# ---- query compound ----
Q: Item CCCC[N+](C)(CCCC)CCCC.O=S(=O)([N-]S(=O)(=O)C(F)(F)F)C(F)(F)F [tributylmethylammonium bis((trifluoromethyl)sulfonyl)imide] has what recorded refractive index?
Ans: 1.41468
